Numbers sourced from paper PMC10893631.

We begin with a simple list: items and their reported inhibition at 10 µM.
- Test system: DU-145
- ASSAY_OVERVIEW: NCI SRB growth inhibition (single dose 10 µM / five-dose)
- Type: cell-based, human
- REPORTED_CONDITIONS: Homo sapiens; DU-145 (Prostate cancer), 10 µM; read-out: GI%

// known answers, use as guide
(Q) Fill in the recorded inhibition at 10 µM for this molecule, with DU-145 as test system: `O=C(NN=Cc1cccc(O)c1)c1ccc2[nH]c(-c3ccccc3)nc2c1`
(A) < 5%

(Q) Fill in the recorded inhibition at 10 µM for this molecule, with DU-145 as test system: `COc1ccc(-c2nc3cc(C(=O)NN=Cc4ccccc4O)ccc3[nH]2)cc1`
(A) > 100%

(Q) Fill in the recorded inhibition at 10 µM for this molecule, with DU-145 as test system: `COc1ccc(-c2nc3cc(C(=O)NN=Cc4cccc(OC)c4)ccc3[nH]2)cc1`
(A) > 100%

Now take the following molecule into account.
(Q) Fill in the recorded inhibition at 10 µM for this molecule, with DU-145 as test system: `COc1cccc(C=NNC(=O)c2ccc3[nH]c(-c4ccccc4)nc3c2)c1O`
(A) 79.7%
